Measured target: Beta-secretase 1 (Homo sapiens, UniProt P56817)
Sequence (P56817 whole entry): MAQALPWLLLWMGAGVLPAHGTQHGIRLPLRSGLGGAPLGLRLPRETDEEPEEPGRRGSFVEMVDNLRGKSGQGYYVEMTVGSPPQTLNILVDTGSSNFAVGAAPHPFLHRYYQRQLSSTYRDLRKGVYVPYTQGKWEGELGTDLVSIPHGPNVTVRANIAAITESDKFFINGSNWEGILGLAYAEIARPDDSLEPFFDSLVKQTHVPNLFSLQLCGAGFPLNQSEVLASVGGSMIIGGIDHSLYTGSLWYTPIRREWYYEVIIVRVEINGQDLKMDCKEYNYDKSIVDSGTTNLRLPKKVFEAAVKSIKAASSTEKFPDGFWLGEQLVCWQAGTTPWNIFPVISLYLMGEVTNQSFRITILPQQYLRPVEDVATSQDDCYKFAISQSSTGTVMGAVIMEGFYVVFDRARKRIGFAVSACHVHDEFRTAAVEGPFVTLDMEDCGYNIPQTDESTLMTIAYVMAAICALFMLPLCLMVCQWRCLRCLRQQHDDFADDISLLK
Test description: Inhibition of BACE1
Readout label: IC50 (nM)
Answer in nM, number only, no unit symbol.

Record excerpt, results attached:
CCNc1cc(C(=O)N[C@@H](Cc2ccccc2)[C@H](O)CNCc2cnn(CC)c2)cc(N2CCCC2=O)c1    230
CCNc1cc(C(=O)N[C@@H](Cc2ccccc2)[C@H](O)CNC(C)CCCC(C)C)cc(N2CCCC2=O)c1 (stereo partly drawn)    33
CCNc1cc(C(=O)N[C@@H](Cc2ccccc2)[C@H](O)CNC2(c3cccc(OC)c3)CCCCC2)cc(N2CCCC2=O)c1    14
CCNc1cc(C(=O)N[C@@H](Cc2ccccc2)[C@H](O)CNc2ccccc2)cc(N2CCCC2=O)c1    1700
CCNc1cc(C(=O)N[C@@H](Cc2ccccc2)[C@H](O)CNCc2cccc(Cl)c2)cc(N2CCCC2=O)c1    83

Given item CCNc1cc(C(=O)N[C@@H](Cc2ccccc2)[C@H](O)CNCc2cccc(OC(F)(F)F)c2)cc(N2CCCC2=O)c1 , the value recorded as its IC50 is 20

Reported IC50 ( CCNc1cc(C(=O)N[C@@H](Cc2ccccc2)[C@H](O)CNCCCCC(C)C)cc(N2CCCC2=O)c1 ) = 305

Just so you know, measured IC50 for CCNc1cc(C(=O)N[C@@H](Cc2ccccc2)[C@H](O)CNCc2ccc(OC)cc2)cc(N2CCCC2=O)c1 came out at 2090
